melting point overview

compound	reported.value
CCCNC(=O)n1c(Cc2ccccc2)noc1=O	74 °C
CCOCc1nc2c(N)nc(C)c(C)c2n1CCNC(=O)NC1CCCCC1	188 to 190 °C

Q: Give melting point for `COc1cc(CN2CCc3cc(OCc4ccccc4)c(OC)cc3C2=O)cc(OC)c1`
Ans: 82 to 83 °C

Q: Give melting point for `CCCc1nn(CC)c2c(=O)n(CCOc3cccc(OC(C)(C)C(=O)O)c3)c(C)nc12`
Ans: 147 to 149 °C

Q: Give melting point for `CN(Cc1ccccc1)C(=O)Cn1c(-c2ccc(Cl)cc2)nc2cccnc21`
Ans: 87 to 89 °C

Q: Give melting point for COc1ccc(-c2coc3cc(OCC(O)CN4CCOCC4)ccc3c2=O)cc1OC (stereo unspecified)
Ans: 135 to 136 °C

Q: Give melting point for `COC(=O)C(=O)c1ccc(OCOc2ccccc2)cc1`
Ans: 52 to 54 °C

Q: Give melting point for CC(=O)N1C(=O)C(C(=O)Cc2ccccc2)c2ccccc21 (stereo unspecified)
Ans: 149 to 151 °C

Q: Give melting point for `CCOC(=O)C(C)(C)n1c(=O)[nH]c2ccc(F)cc2c1=O`
Ans: 167 to 169 °C

Q: Give melting point for `COc1ccc2cccnc2c1[N+](=O)[O-]`
Ans: 178 °C
